Organism: Oryctolagus cuniculus
Assay: Percentage inhibition of Transglutaminase activity in rabbit at 10 nM.
endpoint: Transglutaminase activity (% of control) (%)
Report as a plain number; the unit % is understood.

Examples with answers:
1) CC1(C)CCC(C)(C)c2cc3cc(-c4ccc(C(=O)O)cc4)ccc3cc21 | 14
2) Cc1cc2c(cc1-c1ccc3cc(C(=O)O)ccc3c1)C(C)(C)CCC2(C)C | 11
3) Cc1c(-c2ccc3c(c2)C(C)(C)CCC3(C)C)ccc2cc(C(=O)O)ccc12 | 47
4) CC1(C)CCC(C)(C)c2cc(-c3ccc4cc(C(=O)O)ccc4c3)ccc21 | 9

Moving on to another molecule below.
input: Any idea what Transglutaminase activity (% of control) was measured for CC1(C)CCC(C)(C)c2cc(C3C[C@H]3c3ccc(C(=O)O)cc3)ccc21 (stereo partly drawn) ?
output: 23
